Target: human TAS2R1 (Homo sapiens, UniProt Q9NYW7)
Construct: expressed in transfected cells; host or cells: HEK293T-Gα16gust44
Sequence (Q9NYW7 1-299): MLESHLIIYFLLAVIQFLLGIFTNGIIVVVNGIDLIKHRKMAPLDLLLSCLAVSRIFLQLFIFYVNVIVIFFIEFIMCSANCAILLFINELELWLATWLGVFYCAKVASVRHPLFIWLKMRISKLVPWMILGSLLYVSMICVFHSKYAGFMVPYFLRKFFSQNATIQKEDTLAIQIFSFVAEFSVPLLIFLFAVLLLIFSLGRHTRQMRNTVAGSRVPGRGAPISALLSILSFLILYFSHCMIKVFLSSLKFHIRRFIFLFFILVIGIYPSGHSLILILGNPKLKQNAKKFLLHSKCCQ
Assay: Calcium imaging assay (FLIPR), HEK293T-Gα16gust44 cells transfected with human TAS2R1
Format: cell-based
Conditions: Time 78.781 s
The reader will find reported RLU values listed item by item below.
Measurement Label: RLU

[[record]]
structure_smiles_string = "C[C@H](CCC(=O)NCCS(=O)(=O)O)[C@H]1CC[C@H]2[C@@H]3[C@H](O)C[C@@H]4C[C@H](O)CC[C@]4(C)[C@H]3C[C@H](O)[C@]12C"
assay_result = "402.418 RLU"

[[record]]
structure_smiles_string = "C[C@H](CCC(=O)O)[C@H]1CC[C@H]2[C@@H]3CC[C@@H]4C[C@H](O)CC[C@]4(C)[C@H]3C[C@H](O)[C@]12C"
assay_result = "402.577 RLU"

[[record]]
structure_smiles_string = "C[C@H](CCC(=O)NCCS(=O)(=O)O)[C@H]1CC[C@H]2[C@@H]3CC[C@@H]4C[C@H](O)CC[C@]4(C)[C@H]3CC[C@]12C"
assay_result = "736.469 RLU"

[[record]]
structure_smiles_string = "C[C@H](CCC(=O)NCC(=O)O)[C@H]1CC[C@H]2[C@@H]3[C@H](O)C[C@@H]4C[C@H](O)CC[C@]4(C)[C@H]3C[C@H](O)[C@]12C"
assay_result = "618.749 RLU"


###

biological target: mouse Tas2r144 (Mus musculus); construct: expressed in transfected cells; host or cells: HEK293T-Gα16gust44; experiment: Calcium imaging assay (FLIPR), HEK293T-Gα16gust44 cells transfected with mouse Tas2r144; type: cell-based; settings: Time 2 s
Sequence (Q7TQB8 whole entry): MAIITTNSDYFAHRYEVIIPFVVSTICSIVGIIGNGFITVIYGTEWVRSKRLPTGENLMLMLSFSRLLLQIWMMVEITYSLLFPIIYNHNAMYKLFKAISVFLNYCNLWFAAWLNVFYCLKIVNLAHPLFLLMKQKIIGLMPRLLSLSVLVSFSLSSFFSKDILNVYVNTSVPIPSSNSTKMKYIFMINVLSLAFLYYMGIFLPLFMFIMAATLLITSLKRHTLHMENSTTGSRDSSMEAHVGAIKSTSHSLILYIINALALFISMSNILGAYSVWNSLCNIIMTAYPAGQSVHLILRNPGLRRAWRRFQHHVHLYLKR
The reader will find reported RLU values listed item by item below.
Measurement Label: RLU (RLU)

[[record]]
structure_smiles_string = "C[C@H](CCC(=O)NCC(=O)O)[C@H]1CC[C@H]2[C@@H]3[C@H](O)C[C@@H]4C[C@H](O)CC[C@]4(C)[C@H]3C[C@H](O)[C@]12C"
measure_unit = "RLU"
assay_result = -31.2125

[[record]]
structure_smiles_string = "C[C@H](CCC(=O)O)[C@H]1CC[C@H]2[C@@H]3[C@H](O)C[C@@H]4C[C@H](O)CC[C@]4(C)[C@H]3C[C@H](O)[C@]12C"
measure_unit = "RLU"
assay_result = 0.2042

[[record]]
structure_smiles_string = "C[C@H](CCC(=O)NCCS(=O)(=O)O)[C@H]1CC[C@H]2[C@@H]3[C@H](O)C[C@@H]4C[C@H](O)CC[C@]4(C)[C@H]3C[C@H](O)[C@]12C"
measure_unit = "RLU"
assay_result = 20.3472

[[record]]
structure_smiles_string = "C[C@H](CCC(=O)NCCS(=O)(=O)O)[C@H]1CC[C@H]2[C@@H]3CC[C@@H]4C[C@H](O)CC[C@]4(C)[C@H]3CC[C@]12C"
measure_unit = "RLU"
assay_result = 14.6538

